Where a name gives a salt, the structure may show the parent alone.
measure.name: melting point (°C)

The examples below pair each entry with its known result.
# compound, measure.name, reported.value
rows = [
    ("O=C(c1ccc(-c2ccc(-n3cccc3)cc2)o1)N1CCN2CCC1CC2 (as salt: fumaric acid salt)", "melting point", 222),
    ("O=C(c1ccc(-c2ccc(Nc3ncccc3[N+](=O)[O-])cc2)o1)N1CCN2CCC1CC2 (as salt: fumaric acid salt)", "melting point", 223),
]

A. O=C(Nc1ccc(-c2ccc(C(=O)N3CCN4CCC3CC4)o2)cc1)c1ccccc1
B. O=C(Nc1ccc(-c2ccc(C(=O)N3CCN4CCC3CC4)o2)cc1)Nc1cccc(C(F)(F)F)c1
**Query** Kindly identify the item with the lower melting point figure among these two: A and B Kindly state the label of the option you pick.
**Result** B
(B: 171 °C, A: 254 °C)

----------
Each record here notes measured melting point.
Structures can show the parent of a compound that is named as a salt.

The examples below pair each entry with its known result.
# compound, melting point
measured = [
    ("O=C(Nc1ccc(-c2ccc(C(=O)N3CCN4CCC3CC4)o2)cc1)c1ccccc1[N+](=O)[O-] (as salt: hydrochloric acid salt)", "283 °C"),
    ("O=C(Nc1ccc(-c2ccc(C(=O)N3CCN4CCC3CC4)o2)cc1)c1cccc([N+](=O)[O-])c1 (as salt: hydrochloric acid salt)", "> 300 °C"),
    ("O=C(Nc1ccc(-c2ccc(C(=O)N3CCN4CCC3CC4)o2)cc1)Nc1ccccc1C(F)(F)F", "253 °C (dec.)"),
]

**Query** What does the data say about its melting point? Entry: `O=C(Nc1ccc(-c2ccc(C(=O)N3CCN4CCC3CC4)o2)cc1)Nc1cccc(F)c1`
**Result** 230 °C

**Query** What does the data say about its melting point? Entry: `Nc1ccc(C(=O)Nc2ccc(-c3ccc(C(=O)N4CCN5CCC4CC5)o3)cc2)cc1`
**Result** 151 °C

**Query** What does the data say about its melting point? Entry: O=C(Nc1cccc(-c2ccc(C(=O)N3CCN4CCC3CC4)o2)c1)c1ccccc1 (as salt: fumaric acid salt)
**Result** 201 to 204 °C

----------
target: α7-subtype of nicotinic receptors (Rattus norvegicus)
Sequence (Q05941 23-502): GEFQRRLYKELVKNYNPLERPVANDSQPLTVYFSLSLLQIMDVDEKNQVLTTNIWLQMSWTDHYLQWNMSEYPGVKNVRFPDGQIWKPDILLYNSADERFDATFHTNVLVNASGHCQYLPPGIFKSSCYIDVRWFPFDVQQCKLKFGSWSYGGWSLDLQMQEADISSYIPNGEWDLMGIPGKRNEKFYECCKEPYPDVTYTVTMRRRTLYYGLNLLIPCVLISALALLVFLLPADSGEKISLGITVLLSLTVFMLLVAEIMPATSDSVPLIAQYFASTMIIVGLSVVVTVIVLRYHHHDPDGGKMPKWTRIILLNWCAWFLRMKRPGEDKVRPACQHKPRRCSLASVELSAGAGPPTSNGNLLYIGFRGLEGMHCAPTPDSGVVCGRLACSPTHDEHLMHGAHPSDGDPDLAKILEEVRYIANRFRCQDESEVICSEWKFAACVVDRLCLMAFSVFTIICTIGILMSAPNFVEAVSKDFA
measure.name: pIC50
Answer as the number alone; pIC50 is minus log10 of concentration in mol/L.

# molecule, assay.target, pIC50
rows = [
    ("CC(=O)Nc1ccccc1NC(=O)Nc1ccc(-c2ccc(C(=O)N3CCN4CCC3CC4)o2)cc1 [Compound B2]", "α7-subtype of nicotinic receptors (Rattus norvegicus)", 8.80),
    ("Nc1ccccc1NC(=O)Nc1ccc(-c2ccc(C(=O)N3CCN4CCC3CC4)o2)cc1 [Compound A1]", "α7-subtype of nicotinic receptors (Rattus norvegicus)", 8.92),
]

Consider the additional molecule presented here.
**Query** Give recorded pIC50 with α7-subtype of nicotinic receptors (Rattus norvegicus) for the following molecule: CCNC(=O)Nc1ccc(-c2ccc(C(=O)N3CCN4CCC3CC4)o2)cc1 [Compound C3]
**Result** 9.25

----------
Counter-ions that a name gives are not always drawn.
Each record here notes measured melting point.

The examples below pair each entry with its known result.
# compound, reported.value
rows = [
    ("CC(=O)Nc1ccccc1NC(=O)Nc1ccc(-c2ccc(C(=O)N3CCN4CCC3CC4)o2)cc1 (as salt: fumaric acid salt)", "159 to 169 °C"),
    ("Nc1cccc(C(=O)Nc2ccc(-c3ccc(C(=O)N4CCN5CCC4CC5)o3)cc2)c1", "249 to 252 °C"),
]

Consider the additional compound presented here.
**Query** What does the data say about its melting point? Entry: `O=C(c1ccc(-c2ccc(NC(=S)Nc3ccccc3)cc2)o1)N1CCN2CCC1CC2`
**Result** 171.4 to 174.7 °C
